assay: Mouse blood and tissue PK (LC/MS-MS); type: in vivo; conditions: mouse, tumor, oral, 25 mg/kg, Model Validation Dataset; 25mg/kg_study6; 72 h
Property label: concentration at 72 h (nM)
Answer format: numeric, nM implied, no suffix.

Exam item: I would be grateful if you could share the reported concentration at 72 h for CCn1c(-c2cc(N3CCN(C)CC3)cnc2[C@H](C)OC)c2c3cc(ccc31)-c1csc(n1)C[C@H](NC(=O)[C@H]1C[C@@H]1C)C(=O)N1CCC[C@H](N1)C(=O)OCC(C)(C)C2 [RMC-6236] .
Marked response: 433

###

experiment: Mouse blood and tissue PK (LC/MS-MS); format: in vivo; conditions: BALB/c nude, mouse, tumor, po, 10 mg/kg, Capan-2 (10 mg/kg), single dose; read-out: Tumor t1/2 (converted)
Property label: half-life (min)
Value expressed in min; do not type the unit.

Exam item: Recorded half-life for CCn1c(-c2cc(N3CCN(C)CC3)cnc2[C@H](C)OC)c2c3cc(ccc31)-c1csc(n1)C[C@H](NC(=O)[C@H]1C[C@@H]1C)C(=O)N1CCC[C@H](N1)C(=O)OCC(C)(C)C2 , please?
Marked response: 942

###

assay: Mouse blood and tissue PK (LC/MS-MS); type: in vivo; conditions: BALB/c nude, mouse, tumor, oral, 10 mg/kg, sheet colon; Capan-2, Capan-2 #3_PHA 2023; 10 mg/kg, 24h; read-out: RMC-6236 (nM) Tumor
Property label: concentration at 24 h (nM)
Numbers only here, please. The scale is nM.

Exam item: For the compound CCn1c(-c2cc(N3CCN(C)CC3)cnc2[C@H](C)OC)c2c3cc(ccc31)-c1csc(n1)C[C@H](NC(=O)[C@H]1C[C@@H]1C)C(=O)N1CCC[C@H](N1)C(=O)OCC(C)(C)C2 [RMC-6236] , what concentration at 24 h is on record?
Marked response: 40.6

###

assay: Mouse blood and tissue PK (LC/MS-MS); type: in vivo; conditions: Balb/c nude, mouse, tumor (intracranial), po, 25 mg/kg, LU99-luc IC (25 mg/kg), intracranial tumor; read-out: Tumor t1/2 (converted)
Property label: half-life (h)
Output spec: scalar in h, unitless text.

Exam item: Can you share its half-life? I mean this compound: CCn1c(-c2cc(N3CCN(C)CC3)cnc2[C@H](C)OC)c2c3cc(ccc31)-c1csc(n1)C[C@H](NC(=O)[C@H]1C[C@@H]1C)C(=O)N1CCC[C@H](N1)C(=O)OCC(C)(C)C2
Marked response: 16.1

###

system: panel of 78 cancer cell lines; assay: Cell panel 3D methylcellulose CellTiter-Glo proliferation; format: cell-based; details: Homo sapiens, NCI-H23, NCIH23; KRAS G12C; Lung; read-out: Proliferation Inhibition (EC50)
Property label: pEC50
Just the number, please; pEC50 means minus log10 of the concentration in mol/L.

Exam item: Please give the measured pEC50 for this compound: CCn1c(-c2cc(N3CCN(C)CC3)cnc2[C@H](C)OC)c2c3cc(ccc31)-c1csc(n1)C[C@H](NC(=O)[C@H]1C[C@@H]1C)C(=O)N1CCC[C@H](N1)C(=O)OCC(C)(C)C2 [RMC-6236]
Marked response: 8.15

###

experiment: Mouse blood and tissue PK (LC/MS-MS); format: in vivo; conditions: mouse, tumor, oral, 25 mg/kg, KP-4, study KP-4 #5, 25 mg/kg, 48h; read-out: RMC-6236 (nM) Tumor
Property label: concentration at 48 h (nM)
Write the number in nM without appending the unit.

Exam item: concentration at 48 h lookup needed for CCn1c(-c2cc(N3CCN(C)CC3)cnc2[C@H](C)OC)c2c3cc(ccc31)-c1csc(n1)C[C@H](NC(=O)[C@H]1C[C@@H]1C)C(=O)N1CCC[C@H](N1)C(=O)OCC(C)(C)C2 , thanks.
Marked response: 281

###

tested on: panel of 78 cancer cell lines; experiment: Cell panel 3D methylcellulose CellTiter-Glo proliferation; assay type: cell-based; conditions: Homo sapiens, Calu-1, CALU1; KRAS G12C; Lung; read-out: Proliferation Inhibition (EC50)
Property label: EC50
Include the unit right after the number.

Exam item: Requested read-out EC50, target or system panel of 78 cancer cell lines, entry CCn1c(-c2cc(N3CCN(C)CC3)cnc2[C@H](C)OC)c2c3cc(ccc31)-c1csc(n1)C[C@H](NC(=O)[C@H]1C[C@@H]1C)C(=O)N1CCC[C@H](N1)C(=O)OCC(C)(C)C2
Marked response: 2.1 nM

###

assay: Mouse blood and tissue PK (LC/MS-MS); assay type: in vivo; conditions: mouse, tumor, oral, 100 mg/kg, NCI-H441 xenograft tumor, study NCI-H441#6, 100 mg/kg, 48h; read-out: RMC-6236 (nM) Tumor
Property label: concentration at 48 h (nM)
Value expressed in nM; do not type the unit.

Exam item: Quick one: concentration at 48 h for CCn1c(-c2cc(N3CCN(C)CC3)cnc2[C@H](C)OC)c2c3cc(ccc31)-c1csc(n1)C[C@H](NC(=O)[C@H]1C[C@@H]1C)C(=O)N1CCC[C@H](N1)C(=O)OCC(C)(C)C2 ?
Marked response: 2060

###

Assay: Mouse blood and tissue PK (LC/MS-MS)
Assay type: in vivo
Settings: BALB/c nude, mouse, tumor, oral, 3 mg/kg, Capan-2, study Capan-2 #3_PHA 2023, 3 mg/kg, 4h; read-out: RMC-6236 (nM) Tumor
Description: For single-dose PKPD study, mice were randomized and assigned into groups (n = 3/dose/time point). […] Blood and tissues, including the tumor, brain, colon, ear skin, and muscle, were harvested at indicated time points. […] The whole blood, tumor, brain, colon, and ear skin concentrations of RMC-6236 were determined using liquid chromatography–tandem mass spectrometry (LC/MS-MS) methods. […] Concentrations reported as below the quantification limit were treated as zero for PK analysis. […]
Property label: concentration at 4 h (nM)
Only the number, expressed in nM, is required.

Exam item: // returns reported concentration at 4 h for input CCn1c(-c2cc(N3CCN(C)CC3)cnc2[C@H](C)OC)c2c3cc(ccc31)-c1csc(n1)C[C@H](NC(=O)[C@H]1C[C@@H]1C)C(=O)N1CCC[C@H](N1)C(=O)OCC(C)(C)C2 [RMC-6236]
Marked response: 290

###

assay: Mouse blood and tissue PK (LC/MS-MS); format: in vivo; details: mouse, whole blood, oral, 25 mg/kg, Model Development Dataset; 25mg/kg_study8r (doses every 24 h, 0-[…]); 216.5 h
Property label: concentration at 216.5 h (nM)
Answer format: numeric, nM implied, no suffix.

Exam item: GET /values?readout=concentration at 216.5 h&item= CCn1c(-c2cc(N3CCN(C)CC3)cnc2[C@H](C)OC)c2c3cc(ccc31)-c1csc(n1)C[C@H](NC(=O)[C@H]1C[C@@H]1C)C(=O)N1CCC[C@H](N1)C(=O)OCC(C)(C)C2
Marked response: 1180

###

test system: panel of 78 cancer cell lines; assay: Cell panel 3D methylcellulose CellTiter-Glo proliferation; format: cell-based; conditions: Homo sapiens, NOZ; KRAS G12V; Liver/Bile duct; read-out: Proliferation Inhibition (EC50)
Property label: EC50

Exam item: Returns the measured EC50 for the input compound. Input: CCn1c(-c2cc(N3CCN(C)CC3)cnc2[C@H](C)OC)c2c3cc(ccc31)-c1csc(n1)C[C@H](NC(=O)[C@H]1C[C@@H]1C)C(=O)N1CCC[C@H](N1)C(=O)OCC(C)(C)C2
Marked response: 33.1 nM

###

test: Mouse blood and tissue PK (LC/MS-MS); assay type: in vivo; conditions: BALB/c nude, mouse, colon, oral, 100 mg/kg, sheet colon; Capan-2, Capan-2 #3_PHA 2023; 100 mg/kg, 24h; read-out: RMC-6236 (nM) Tumor
Property label: concentration at 24 h (nM)
Quick note: give the figure in nM, leave out the unit.

Exam item: Value lookup for concentration at 24 h; key = CCn1c(-c2cc(N3CCN(C)CC3)cnc2[C@H](C)OC)c2c3cc(ccc31)-c1csc(n1)C[C@H](NC(=O)[C@H]1C[C@@H]1C)C(=O)N1CCC[C@H](N1)C(=O)OCC(C)(C)C2
Marked response: 531

###

Experiment: Mouse blood and tissue PK (LC/MS-MS)
Assay type: in vivo
Conditions: mouse, tumor, oral, 25 mg/kg, KP-4, study KP-4 #5, 25 mg/kg, 4h; read-out: RMC-6236 (nM) Tumor
Method: For single-dose PKPD study, mice were randomized and assigned into groups (n = 3/dose/time point). […] Blood and tissues, including the tumor, brain, colon, ear skin, and muscle, were harvested at indicated time points. […] The whole blood, tumor, brain, colon, and ear skin concentrations of RMC-6236 were determined using liquid chromatography–tandem mass spectrometry (LC/MS-MS) methods. […] Concentrations reported as below the quantification limit were treated as zero for PK analysis. […]
Property label: concentration at 4 h (nM)
Supply the numeric figure in nM, leaving out any unit text.

Exam item: Requested read-out: concentration at 4 h. Entry: CCn1c(-c2cc(N3CCN(C)CC3)cnc2[C@H](C)OC)c2c3cc(ccc31)-c1csc(n1)C[C@H](NC(=O)[C@H]1C[C@@H]1C)C(=O)N1CCC[C@H](N1)C(=O)OCC(C)(C)C2
Marked response: 2460
